Assignment: determine reported CC50 for the given compounds.
Assay: Cytotoxicity against human […] cells
Type: cell-based
The response must be a number in µg/mL with no trailing unit.

Prompt: What measured CC50 goes with C=C(C)[C@@H]1C[C@H](O)[C@@H]2[C@]3(CC[C@]4(C)C([C@@](C)(O)CC/C=C(/C)C(=O)O)=C[C@H](O)[C@@]24C)C[C@]13CCC(=O)O ?
Completion: 156

Prompt: Please give the result for C=C(C)[C@@H]1CC[C@@H]2[C@]3(CC[C@]4(C)C(=O)CC[C@@]24C)C[C@]13CCC(=O)O too.
Completion: 176

Prompt: Please give the result for C=C(C)[C@@H]1CC[C@@H]2[C@]3(CC[C@]4(C)[C@@H]([C@H](C)CC/C=C(/C)C(=O)O)CC[C@@]24C)C[C@]13CCC(=O)O too.
Completion: 89

Prompt: Please give the result for CC1(C)OC(=O)C=C[C@]23C[C@]24C[C@H](O)[C@]2(C)[C@@H]([C@@](C)(O)[C@H]5CC=C(CO)C(=O)O5)CC[C@@]2(C)[C@@H]4C[C@H](O)[C@@H]13 too.
Completion: 178

Prompt: Please give the result for CC1=CC[C@H]([C@](C)(O)[C@H]2CC[C@@]3(C)[C@@H]4C[C@H](O)[C@H]5C(C)(C)OC(=O)C=C[C@@]56C[C@@]46C[C@H](O)[C@]23C)OC1=O too.
Completion: 182

Every entry's value here was drawn from ChEMBL document CHEMBL1667812.
